- Tested on: Black Bean Aphid [Aphis fabae (Scop.)]
- Assay Notes: Black bean aphid insecticidal test (BBA)
- Assay type: in vivo
- Condition Context: percent in sprayed solution; mortality after 48 hours; max. 0.05%
Recorded Endpoint: LC50 BBA (%)
Give the value, in units of %, as a plain number.

- Compound: "CC(C)C(O)(CCc1cccc(Oc2ccccc2)c1)Cc1ccc(Cl)cc1 (centres unmarked)"
  Measured: 0.05
- Compound: "CC(C)C(O)(CCc1cccc(Oc2ccccc2)c1)Cc1cccc(Cl)c1 (centres unmarked)"
  Measured: 0.05

Now for another entry.
Input line: Find the recorded LC50 BBA belonging to Cc1ccc(CC(O)(CCc2cccc(Oc3ccccc3)c2)C(C)C)cc1 (centres unmarked) and report it.
Output line: 0.05
